Measured Bone values are reported for all entries that follow.
- experiment-notes: Organ distribution in normal mice after iv injection of [18F]tracers
- Format: in vivo
- run-conditions: ICR mice, [18F]tracer in 0.1% BSA, 2 hr
Response body: numeric value in % dose/g, unit text excluded.

Give its Bone value. Item: CNc1ccc(C=Cc2ccc(OCCOCCOCC[18F])cc2)cc1 [[^18F]12b]
2.74

Also check CNc1ccc(C=Cc2ccc(OCCOCCF)cc2)cc1 [Compound 12a]
2.88

Also check CNc1ccc(C=Cc2ccc(OCCOCCOCCOCCF)cc2)cc1 [Compound 12c]
1.50

Okay, next one:
Give its Bone value. Item: CNc1ccc(C=Cc2ccc(OCCOCCOCCOCCOCCF)cc2)cc1 [Compound 12d]
2.35

----------
Measured Ki values are reported for all entries that follow.
- system: Aβ plaques (postmortem AD brain homogenates) (Homo sapiens)
- experiment-notes: Binding assay: inhibition of [125I]IMPY binding in postmortem AD brain homogenates
- run-conditions: read-out: Ki ± SEM, X = OH
Response body: numeric value in nM, unit text excluded.

Give its Ki value. Item: CNc1ccc(C=Cc2ccc(OCCOCCO)cc2)cc1 [Compound 3a]
5.2

Also check CNc1ccc(C=Cc2ccc(OCCOCCOCCOCCOCCO)cc2)cc1 [Compound 3d]
5.2

Also check CNc1ccc(C=Cc2ccc(OCCOCCOCCO)cc2)cc1 [Compound 3b]
2.8

Okay, next one:
Give its Ki value. Item: CNc1ccc(C=Cc2ccc(OCCOCCOCCOCCO)cc2)cc1 [Compound 3c]
4.6

----------
- system: Aβ plaques (postmortem AD brain homogenates) (Homo sapiens, UniProt P05067)
- Sequence (P05067 672-711 limits assumed): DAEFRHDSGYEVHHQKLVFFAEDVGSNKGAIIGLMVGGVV
- experiment-notes: Binding assay: inhibition of [125I]IMPY binding in postmortem AD brain homogenates
- run-conditions: read-out: Ki ± SEM, X = F
readout-label: Ki (nM)
Response body: numeric value in nM, unit text excluded.

Form field - read-out: Ki; system: Aβ plaques (postmortem AD brain homogenates) (Homo sapiens, UniProt P05067); submitted item: CNc1ccc(C=Cc2ccc(OCCOCCF)cc2)cc1 [Compound 12a]
2.9

Okay, next one:
Form field - read-out: Ki; system: Aβ plaques (postmortem AD brain homogenates) (Homo sapiens, UniProt P05067); submitted item: CNc1ccc(C=Cc2ccc(OCCOCCOCCOCCOCCF)cc2)cc1 [Compound 12d]
6
